assay: Brain penetration in mice; assay type: in vivo; details: mouse, brain; male C57BL/6 mice, 10 mg/kg PO, 4 hours post-dose

compound: C[C@@H](NC(=O)Cc1ccc(C(F)(F)F)cc1)c1cc2cnn(CC(F)(F)F)c2cn1 [Example 15]
concentration at 4 h: > 1000 ng/mL

====

target: Cav3.2 (Homo sapiens (Human), UniProt O95180); experiment: In vitro patch clamp assay (SyncroPatch 384PE); conditions: HEK293 cells
Sequence (O95180 whole entry): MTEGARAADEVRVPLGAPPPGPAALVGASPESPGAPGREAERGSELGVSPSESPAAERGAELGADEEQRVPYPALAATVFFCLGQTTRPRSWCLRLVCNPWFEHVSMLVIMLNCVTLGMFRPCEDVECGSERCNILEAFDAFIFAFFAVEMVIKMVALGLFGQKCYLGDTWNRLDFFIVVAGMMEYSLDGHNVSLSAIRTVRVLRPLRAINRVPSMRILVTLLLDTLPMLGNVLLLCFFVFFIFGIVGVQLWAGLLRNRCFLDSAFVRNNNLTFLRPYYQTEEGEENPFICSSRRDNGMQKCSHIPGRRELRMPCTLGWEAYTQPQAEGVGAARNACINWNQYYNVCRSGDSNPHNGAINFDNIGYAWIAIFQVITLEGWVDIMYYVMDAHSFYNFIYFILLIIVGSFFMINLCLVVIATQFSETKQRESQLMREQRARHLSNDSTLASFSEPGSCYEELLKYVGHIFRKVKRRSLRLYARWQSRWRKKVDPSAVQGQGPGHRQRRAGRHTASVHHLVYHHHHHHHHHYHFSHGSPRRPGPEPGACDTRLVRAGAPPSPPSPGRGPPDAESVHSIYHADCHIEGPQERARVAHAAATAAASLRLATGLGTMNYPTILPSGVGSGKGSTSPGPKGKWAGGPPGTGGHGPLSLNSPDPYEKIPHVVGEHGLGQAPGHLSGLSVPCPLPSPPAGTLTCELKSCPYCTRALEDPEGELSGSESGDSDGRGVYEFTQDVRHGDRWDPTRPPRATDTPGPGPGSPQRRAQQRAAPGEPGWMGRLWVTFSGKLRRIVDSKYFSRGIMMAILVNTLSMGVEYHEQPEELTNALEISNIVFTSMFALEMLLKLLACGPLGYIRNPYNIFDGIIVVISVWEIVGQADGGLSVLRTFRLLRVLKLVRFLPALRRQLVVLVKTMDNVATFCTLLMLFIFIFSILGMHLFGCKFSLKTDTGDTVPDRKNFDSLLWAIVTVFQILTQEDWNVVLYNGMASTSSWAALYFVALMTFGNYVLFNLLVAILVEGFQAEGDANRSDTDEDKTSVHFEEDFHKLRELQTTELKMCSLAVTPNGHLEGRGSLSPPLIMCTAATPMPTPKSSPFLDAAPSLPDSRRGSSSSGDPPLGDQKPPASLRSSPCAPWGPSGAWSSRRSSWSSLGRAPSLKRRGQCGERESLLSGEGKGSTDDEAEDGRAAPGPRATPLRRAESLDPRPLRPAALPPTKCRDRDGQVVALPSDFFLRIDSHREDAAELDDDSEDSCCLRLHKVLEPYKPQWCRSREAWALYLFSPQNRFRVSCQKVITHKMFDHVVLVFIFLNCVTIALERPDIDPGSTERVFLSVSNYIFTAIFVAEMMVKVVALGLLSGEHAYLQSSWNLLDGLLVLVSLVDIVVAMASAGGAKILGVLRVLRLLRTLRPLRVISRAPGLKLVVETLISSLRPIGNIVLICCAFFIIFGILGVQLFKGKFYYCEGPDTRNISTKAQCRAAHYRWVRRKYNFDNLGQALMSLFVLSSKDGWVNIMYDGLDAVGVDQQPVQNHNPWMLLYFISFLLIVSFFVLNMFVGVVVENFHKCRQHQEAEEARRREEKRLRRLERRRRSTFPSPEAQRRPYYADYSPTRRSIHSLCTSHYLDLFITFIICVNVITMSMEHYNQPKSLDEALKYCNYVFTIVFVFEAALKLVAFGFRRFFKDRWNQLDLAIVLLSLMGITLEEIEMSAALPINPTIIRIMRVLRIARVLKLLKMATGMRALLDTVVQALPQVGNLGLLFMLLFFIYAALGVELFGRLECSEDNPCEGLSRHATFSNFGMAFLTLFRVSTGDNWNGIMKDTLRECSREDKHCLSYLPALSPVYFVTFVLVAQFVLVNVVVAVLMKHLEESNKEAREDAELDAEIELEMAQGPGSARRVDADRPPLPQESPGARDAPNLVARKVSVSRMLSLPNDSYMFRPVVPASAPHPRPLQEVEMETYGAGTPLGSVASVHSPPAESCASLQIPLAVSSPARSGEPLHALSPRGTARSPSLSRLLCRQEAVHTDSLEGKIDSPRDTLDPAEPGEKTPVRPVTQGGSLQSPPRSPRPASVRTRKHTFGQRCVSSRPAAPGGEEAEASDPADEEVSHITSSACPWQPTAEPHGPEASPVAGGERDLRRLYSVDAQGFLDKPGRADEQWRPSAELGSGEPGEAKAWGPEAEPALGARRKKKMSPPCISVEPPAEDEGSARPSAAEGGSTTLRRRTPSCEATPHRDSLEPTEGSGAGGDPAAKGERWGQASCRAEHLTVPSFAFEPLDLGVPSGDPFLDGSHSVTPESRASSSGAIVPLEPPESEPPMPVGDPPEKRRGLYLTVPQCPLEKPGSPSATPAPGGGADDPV
pIC50: −log10 of the molar value.

smiles-input: C[C@@H](NC(=O)Cc1ccc(C2(F)CC2)cc1)c1cc2cnn(CC(F)(F)F)c2cn1
pIC50: 6.27
//
smiles-input: Cc1nn(CC(F)(F)F)c2cnc([C@@H](C)NC(=O)Cc3ccc(C(C)C)cc3)cc12
pIC50: 5.03
//
smiles-input: C[C@@H](NC(=O)Cc1ccc(C(F)(F)F)c(Cl)c1)c1cc2cnn(CC(F)(F)F)c2cn1
pIC50: 6.67
//
smiles-input: C[C@@H](NC(=O)Cc1ccc(C2(C(F)(F)F)CC2)s1)c1cc2cnn(CC(F)(F)F)c2cn1
pIC50: 6.53
